# Study system: T1, human recombinant TGF-β2 (human, UniProt P09858 303-414 (pig entry))
# T1 sequence: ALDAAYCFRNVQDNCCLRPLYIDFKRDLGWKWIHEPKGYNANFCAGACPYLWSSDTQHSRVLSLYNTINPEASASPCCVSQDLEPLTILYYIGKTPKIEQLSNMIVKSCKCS
# Procedure text: cell-based or functional assay
Kindly return Criterion met if reported RGA (CAGA-12 luc/Smad-2/3 RGA; IC 50 [pM]) is no lower than 90 pM; return Criterion not met if it is lower.

| Binder | Assigned class |
| --- | --- |
| MOR14797 (antibody, human IgG1, kappa, V domains shown, (no LALA)) VH: QVTLRESGPALVKPTQTLTLTCTFSGFSLSTSGMGVGWIRQPPGKALEWLAHIYWNDDKSYSTSLKTRLTISKDTSKNQVVLTMTNMDPVDTATYYCARDFYYSGYFDSWGQGTLVTVSS VL: DIQMTQSPSSLSASVGDRVTITCRASQDISNYLNWYQQKPGKAPKLLIFGASSLQSGVPSRFSGSGSGTDFTLTISSLQPEDFATYYCQQTNTMNTFGQGTKVEIKR | Criterion not met |
| MOR14805 (antibody, human IgG1, lambda, V domains shown) VH: QVQLVQSGAEVKKPGESLKISCKGSGYSFTRYYVAWVRQMPGKGLEWMGWIDPGTSNTRYSPSFQGQVTISADKSISTAYLQWSSLKASDTAMYYCARMLAWGWFDYWGQGTLVTVSS VL: SYELTQPLSVSVALGQTARITCSGDNLGGYYAHWYQQKPGQAPVLVIYDKSDRPSGIPERFSGSNSGNTATLTISRAQAGDEADYYCASYDSSLMMVFGGGTKLTVLG | Criterion met |
| MOR14800 (antibody, human IgG1, lambda, V domains shown) VH: QVQLVQSGAEVKKPGESLKISCKGSGYSFTRYYVAWVRQMPGKGLEWMGWIDPGQSNTRYSPSFQGQVTISADKSISTAYLQWSSLKASDTAMYYCARMLAWGWFDYWGQGTLVTVSS VL: SYELTQPLSVSVALGQTARITCSGDNLGGYYAHWYQQKPGQAPVLVIYDTSDRPSGIPERFSGSNSGNTATLTISRAQAGDEADYYCASYDSSLMMVFGGGTKLTVLG | Criterion not met |
| MOR14787 (antibody, human IgG1, kappa, V domains shown) VH: QVQLVQSGAEVKKPGSSVKVSCKASGGTFSSYAISWVRQAPGQGLEWMGVIVPKWGHPQYAQKFQGRVTITADESTSTAYMELSSLRSEDTAVYYCAREGDFVVLVLTEHYMGGFDVWGQGTLVTVSS VL: DIQMTQSPSSLSASVGDRVTITCRASQSIDEYLNWYQQKPGKAPKLLIYAGSNLQSGVPSRFSGSGSGTDFTLTISSLQPEDFATYYCLQGYSYPRTFGQGTKVEIKR | Criterion not met |
| 1D11 (antibody, V domains shown) VH: QVQLQQSGPELVRPGASVKLSCKASGYIFITYWMNWVKQRPGQGLEWIGQIFPASGSTNYNEMFEGKATLTVDTSSSTAYMQLSSLTSEDSAVYYCARGDGNYALDAMDYWGQGTSVTVSS VL: DIVLTQSPASLAVSLGQRATISCRASESVDSYGNSFMHWYQQKSGQPPKLLIYLASNLESGVPARFSGSGSRTDFTLTIDPVEADDAATYYCQQNNEDPLTFGAGTKLEIK | Criterion met |
| MOR14809 (antibody, human IgG1, lambda, V domains shown) VH: QVQLVQSGAEVKKPGESLKISCKGSGYSFTRYWIAWVRQMPGKGLEWMGIIDPGTSDTRYSPSFQGQVTISADKSISTAYLQWSSLKASDTAMYYCARIDKSLILHSAFDYWGQGTLVTVSS VL: SYELTQPLSVSVALGQTARITCSGDNLGGYYAYWYQQKPGQAPVLVIYETNNRPSGIPERFSGSNSGNTATLTISRAQAGDEADYYCASTTQDYLVFVFGGGTKLTVLG | Criterion met |
| MOR14799 (antibody, human IgG1, lambda, V domains shown) VH: QVQLVQSGAEVKKPGESLKISCKGSGYSFTRYYVAWVRQMPGKGLEWMGWIDPGQSNTRYSPSFQGQVTISADKSISTAYLQWSSLKASDTAMYYCARMLAWGWFDYWGQGTLVTVSS VL: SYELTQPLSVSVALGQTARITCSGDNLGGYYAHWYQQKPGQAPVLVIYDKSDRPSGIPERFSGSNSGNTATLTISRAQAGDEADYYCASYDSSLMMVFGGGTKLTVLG | Criterion not met |
